Experiment: Intrinsic clearance in Han Wistar rat hepatocytes assessed as per million cells preincubated in presence of NADPH for 30 mins and measured up to 120 mins by LC-MS/MS analysis
Format: ADME, cell-based, Hepatocyte
Details: read-out: CLH
Kindly state hepatocyte CLint for each of the entries shown.
Could you give the number and then its unit, please?

May I ask what hepatocyte CLint has been recorded for CN(C)C(=O)CNCCc1cccc(OCCCC(C)(F)F)c1.Cl ?
38 µL/min/1e6 cells

May I ask what hepatocyte CLint has been recorded for CN(C)C(=O)CNCCc1cccc(OCC(F)(F)C(C)(F)F)c1.Cl ?
32 µL/min/1e6 cells

May I ask what hepatocyte CLint has been recorded for CCCCCOc1cccc(CCNCC(=O)N(C)C)c1.Cl ?
91 µL/min/1e6 cells

May I ask what hepatocyte CLint has been recorded for CN(C)C(=O)CNCCc1cccc(OCC(F)(F)C(F)(F)C(F)(F)F)c1.Cl ?
20 µL/min/1e6 cells

May I ask what hepatocyte CLint has been recorded for CCCCOc1cccc(CCNCC(=O)N(C)C)c1.Cl ?
82 µL/min/1e6 cells

May I ask what hepatocyte CLint has been recorded for CN(C)C(=O)CNCCc1cccc(OCCC(C)(F)F)c1.Cl ?
34 µL/min/1e6 cells

May I ask what hepatocyte CLint has been recorded for CN(C)C(=O)CNCCc1cccc(OCC(F)(F)C(F)(F)C(C)(F)F)c1.Cl ?
64 µL/min/1e6 cells
